Answer each item with its documented inhibition.
- Assay overview: M. tuberculosis H37Rv growth inhibitors, H37Rv strain (AID 1626);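 note: bacteria incubated seven days before Alamar blue readout; 0% = bacteria only wells and 100% = bacteria with antibiotic wells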
- Conditions used: active compounds read high, concentration not given here
About 2,000 (0.91%) of roughly 220,000 compounds were called active. Another 2% or so got no clear call; they are omitted. The list is a sample of the results. Potency and affinity values are given separately.
Answers are plain numbers, in %.

Solved cases below.
Compound: CCCOc1ccc(-c2nc(OC)c3ccccc3n2)cc1
Uom: %
inhibition: 77
//
Compound: CCOC(=O)C1=C(C)NC(=S)N(C=O)C1c1ccccc1 (stereo unspecified)
Uom: %
inhibition: 6.03
//
Compound: Cc1ccc(-n2nnnc2SCC(=O)Nc2sccc2C#N)cc1
Uom: %
inhibition: 0.42
//
Compound: O=C(CCCSc1nc2sc3c(c2c(=O)[nH]1)CCC3)NCCO
Uom: %
inhibition: -2.38
//
Compound: COCC(C)NC(=O)c1oc2c(c1C)C1(CCC2)SCCS1 (stereo unspecified)
Uom: %
inhibition: 5.96

# batch size: 5; output inhibition per entry
1. COc1ccc(OC(=O)c2c(C)nn(-c3ccccc3)c2C)cc1
2. COC(=O)Cc1cc(=O)n2[nH]c(C)c(-c3ccccc3)c2n1
3. O=C(CCl)N(c1ccc(Cl)cc1)c1c[nH]c2ccccc12
4. Cc1noc(C)c1COC(=O)C1(c2cccc(F)c2)CCCC1
5. CCCc1cc(=O)n2[nH]c(C)c(-c3ccccc3)c2n1

OUT:
[-12.3, -0.6, 75.3, 5.81, 11.9]

For record Cc1ccccc1-c1cc2nc(-c3ccc([N+](=O)[O-])cc3)cc(=O)n2[nH]1 the listed inhibition is -6.76
